System tested: Ephrin type-B receptor 4 (Homo sapiens);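 note: reported value is the mean percent inhibition of EPHB4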
Run conditions: at 1 µM
Value type: inhibition (%)
One number for each entry, in %.

Reference set (4 entries):
CC1=C(C(=O)Nc2ccc3[nH]ncc3c2)C(c2ccc(F)cc2)N=C(c2ccc(C(F)(F)F)nc2)N1 (stereo unspecified) : 2.78
Cn1c(-c2nonc2N)nc2cnccc21 : 2
N#Cc1cccc(Nc2ncc(-c3ccccc3)o2)c1 : 0.44
CNC(=O)c1cncc(/C=C/c2ccccc2C)c1 : 9.19

For every item in the list below, what is its measured inhibition?
1. CS(=O)(=O)CCNCc1ccc(-c2ccc3ncnc(Nc4ccc(OCc5ccccc5)cc4)c3c2)o1
2. Cc1ccc(-c2cc3c(NC(=O)C4CC4)ncnc3o2)cc1
3. O=C1Nc2ccccc2/C1=C1\CCc2cc(O)ccc21
4. CCCNc1cccc(-n2ncc3c(N/N=C/c4ccncc4)ncnc32)c1
5. CCn1c(-c2nonc2N)nc2cncc(C(=O)NCCNC)c21
6. COc1c(C(N)=O)cc(-c2ccc(Cl)cc2)cc1-c1ccc(S(N)(=O)=O)cc1
7. NC(=O)c1ccc2c(-c3ccnc(NCCCO)n3)c(-c3ccc(F)cc3)nn2c1

Solution:
[3, 12.9, 2.84, 5.77, 0.78, 3.61, 11.4]

For every item in the list below, what is its measured inhibition?
1. COc1cc(N2CCN(C(C)C)CC2)ccc1Nc1nc(Nc2cccc(F)c2C(=O)O)c2cc[nH]c2n1
2. COc1cc(N2CCN(C(C)C)CC2)ccc1Nc1nc(Nc2cccc3ncccc23)c2cc[nH]c2n1
3. Cc1c2ccc(N(C)c3ccnc(Nc4cccc(S(N)(=O)=O)c4)n3)cc2nn1C
4. N#Cc1ccc2c(-c3ccnc(NC4CC4)n3)c(-c3ccc(F)cc3)nn2c1

Solution:
1. 2.84
2. 0.88
3. 10.3
4. 2.45

For every item in the list below, what is its measured inhibition?
1. Fc1ccc(Nc2nccc(-c3c(-c4ccc(C(F)(F)F)cc4)nn4ncccc34)n2)cc1F
2. NS(=O)(=O)c1cccc(N/C=C2\C(=O)Nc3ccccc32)c1
3. NS(=O)(=O)c1ccc(N/N=C2\C(=O)Nc3ccc(C(=O)NCc4ccncc4)cc32)cc1
4. COc1cc(Nc2ncc(-c3ccccc3)o2)cc(OC)c1
5. COc1ccc(-c2nn3ncccc3c2-c2ccnc(Nc3ccc(F)c(F)c3)n2)cc1

Solution:
1: 1.26; 2: 3.73; 3: 4.17; 4: 4.64; 5: 7.6

Exercise: Give the measured inhibition of FC(F)(F)CNc1nccc(-c2cnn3ncccc23)n1 .
Solution: 1.93

Value source: ChEMBL document CHEMBL1961873
